system: CP238; experiment: qHTS profiling for inhibitors of Plasmodium falciparum proliferation (AID 504749); also: nearly all actives have a fitted effect of over 60% in size; settings: P. falciparum in erythrocytes, SYBR Green DNA, 72 h; series mostly up to 28.7 µM
Inconclusive results are not listed. Calls of active or inactive are those of the source. Calls follow the shape of the dose curve; as a rule, active = well fitted inhibition curve with a large enough effect; inconclusive = small, poorly fitted or top-dose-only effect; inactive = flat fitted curve, though single readings scatter.
Would you mind answering with one of these outcomes? TRUE = active, FALSE = inactive

Q. Fill in: this test's call for "Cc1cccc(N(C)C(=S)Oc2ccc3ccccc3c2)c1" is ___
A. FALSE

---

experiment: Quantitative High-Throughput drug screen in 47 multiple myeloma cell lines against the NCATS MIPE library collection: MMM1_PLB cell viability assay (AID 1918976); conditions: MMM1 myeloma cells viability, CellTiter-Glo, 48 h; series mostly up to 45.8 µM; also: nearly all actives have a fitted effect of over 35% in size
Inconclusive results are not listed. Activity calls are given as the source filed them. Calls come from the whole dose curve; as a rule, active = well fitted cell-killing curve with a large enough effect; inconclusive = small, poorly fitted or top-dose-only effect, or effect the other way; inactive = no such curve, though single readings can be large or run the other way.
// one of active, inactive, no free text

Please review the entries below; each comes with its answer.
CCN1CCCC1CNC(=O)c1cc(S(N)(=O)=O)ccc1OC (stereo unspecified) :: inactive
CCOC(=O)[C@H](CCc1ccccc1)N[C@H]1CCc2ccccc2N(CC(=O)O)C1=O :: active
CO[C@@]12[C@H](COC(N)=O)C3=C(C(=O)C(C)=C(N)C3=O)N1C[C@@H]1N[C@@H]12 :: active
Cn1nnc2c(C(N)=O)ncn2c1=O :: inactive
CC(C)(C)C(=O)OCOP(=O)(COCCn1cnc2c(N)ncnc21)OCOC(=O)C(C)(C)C :: active

With those in mind, consider the next compound.
Q. Hi team, can someone confirm the assay call for "CN(Cc1cc(Br)cc(Br)c1N)C1CCCCC1" ?
A. active

---

test: qHTS assay for measurement of the activity of small molecule inhibitors on Zika virus induced Caspase-3 activity in human iPSC derived neural progenitor cells (hNPCs) (AID 1224857); conditions: hNPCs ZIKV-induced caspase-3/7, Caspase-Glo luminescence, 6 h; series mostly up to 45.7 µM; also: % of control where 0% means no effect; nearly all actives have a fitted effect of over 65% in size
Results filed as inconclusive are left out. Activity calls are given as the source filed them. Calls come from the whole dose curve; as a rule, active = well fitted inhibition curve with a large enough effect; inconclusive = small, poorly fitted or top-dose-only effect; inactive = no such curve, though single readings can be large or run the other way.
measured metric: outcome

CCCCCCNC(=O)n1cc(F)c(=O)[nH]c1=O :: inactive
CC1(C)[C@H](C(=O)O)N2C(=O)C[C@H]2S1(=O)=O :: inactive
CCOc1cc(N)c(Cl)cc1C(=O)NCC1CN(Cc2ccc(F)cc2)CCO1 (configuration not stated) :: inactive
Oc1c(Cl)cc(Cl)c2cccnc12 :: inactive

Q. Fill blank: measured outcome of the compound "NC(=O)N1c2ccccc2CC(=O)c2ccccc21" is ____.
A. inactive

Q. outcome for "CCCN[C@H]1CCc2nc(N)sc2C1" ?
A. inactive

Q. Given "Cc1onc(-c2ccccc2Cl)c1C(=O)N[C@@H]1C(=O)N2[C@@H]1SC(C)(C)[C@@H]2C(=O)O" , state its recorded outcome.
A. inactive

Q. Item under review: "Cc1noc(NS(=O)(=O)c2ccc(N)cc2)c1C" . Reported outcome?
A. inactive

Q. Form field: reported outcome of "CCC(=O)O[C@]1(C(=O)SCF)[C@H](C)C[C@H]2[C@@H]3C[C@H](F)C4=CC(=O)C=C[C@]4(C)[C@@]3(F)[C@@H](O)C[C@@]21C"
A. inactive

Q. outcome for "Cc1cccc(N(C)C(=S)Oc2ccc3ccccc3c2)c1" ?
A. inactive

Q. Any idea what outcome was measured for "CC(C)C[C@H](NC(=O)[C@H](CCc1ccccc1)NC(=O)CN1CCOCC1)C(=O)N[C@@H](Cc1ccccc1)C(=O)N[C@@H](CC(C)C)C(=O)[C@@]1(C)CO1" ?
A. inactive

Q. Look up outcome for this compound: "CCOC(=O)c1ccc(C#Cc2ccc3c(c2)C(C)(C)CCS3)nc1"
A. inactive

Q. Find the recorded outcome belonging to COc1ccccc1OCC(O)COC(N)=O (configuration not stated) and report it.
A. inactive

Q. So what's the measured outcome for this one? "COc1cc([C@@H]2c3cc4c(cc3[C@H](O)[C@H]3COC(=O)[C@H]23)OCO4)cc(OC)c1OC"
A. inactive

Q. // outcome lookup, key: "Nc1[nH]c(=O)ncc1F"
A. inactive

Q. Would you mind telling me what outcome value was observed for "O=C(N[C@H](CO)[C@H](O)c1ccc([N+](=O)[O-])cc1)C(Cl)Cl" ?
A. inactive

Q. Could you share which outcome value was measured for CC1=C(C(=O)O)N2C(=O)[C@@H](NC(=O)C(N)c3ccccc3)[C@H]2SC1 (some centres not stated) ?
A. inactive

Q. Could you tell me which outcome is on file for Nc1nc(N)c2nc(CNc3ccc(C(=O)NC(CCC(=O)O)C(=O)O)cc3)cnc2n1 (configuration not stated) ?
A. inactive

Q. # query: outcome of entry "N=C(N)c1ccc(OCCCCCOc2ccc(C(=N)N)cc2)cc1"
A. inactive

Q. Any idea what its outcome is? The compound is "Cc1ccc(S(=O)(=O)N[C@@H](Cc2ccccc2)C(=O)CCl)cc1"
A. inactive

Q. I am curious: what outcome value has been reported for "CC1=NN(c2ccccc2)C(=O)C1" ?
A. inactive

Q. // query outcome value for entry O=C(O)C1CCCN(CCC=C(c2ccccc2)c2ccccc2)C1 (configuration not stated)
A. inactive

---

Here the recorded activity, negative = cell killing is given for each entry.
experiment: Drug repurposing screens with cells derived from glioblastoma tumor samples (AID 1345199); settings: GBM patient neurospheres viability, ATP luminescence, 48 h; at 21.2 µM (top of the series); tumour line D; also: % is scaled to controls: 0 for no effect and ±100 for the full control effect; nearly all actives have a fitted effect of over 40% in size
Results filed as inconclusive are left out.
Just the number please, in %, no unit attached.

Consider the worked cases shown below.
CCC(=O)O[C@]1(C(=O)SCF)[C@H](C)C[C@H]2[C@@H]3C[C@H](F)C4=CC(=O)C=C[C@]4(C)[C@@]3(F)[C@@H](O)C[C@@]21C :: 13.1
NS(=O)(=O)c1cc2c(cc1Cl)NC(C(Cl)Cl)NS2(=O)=O (stereo not given) :: -11.1
CCn1cc(C(=O)O)c(=O)c2cc(F)c(N3CCNCC3)cc21 :: -12

Q. What does the record list as activity, negative = cell killing for "CC(C)(C)NC(=O)[C@H]1CC[C@H]2[C@@H]3CC[C@H]4NC(=O)C=C[C@]4(C)[C@H]3CC[C@]12C" ?
A. -2.64

---

experiment: qHTS Screen of the MIPE 4.0 Collection Against Ewings Sarcoma (TC71) (AID 1259253); conditions: TC71 Ewing sarcoma viability, CellTiter-Glo, 48 h; series mostly up to 45.8 µM; also: nearly all actives have a fitted effect of over 40% in size
Inconclusive results are not listed. The source made the active and inactive calls. Calls follow the shape of the dose curve; as a rule, active = well fitted inhibition curve with a large enough effect; inconclusive = small, poorly fitted or top-dose-only effect; inactive = no such curve, though single readings can be large or run the other way.
Result category, one only: active, inactive

CCCCS(=N)(=O)CCC(N)C(=O)O (centres undefined) :: inactive

Q. Any idea what this test logged for "O=S(=O)(O)CCS" ?
A. inactive

Q. Any idea what this test logged for "C[C@@H](NCCCc1cccc(C(F)(F)F)c1)c1cccc2ccccc12" ?
A. active

Q. What classification did "Cc1ncc([N+](=O)[O-])n1CCO" end up with in this test?
A. inactive

Q. I'd appreciate the recorded outcome for CN(CCOc1ccc(CC2SC(=O)NC2=O)cc1)c1ccccn1 (centres undefined) from this test.
A. active

Q. What is the recorded call for this compound in the test? "O=C(O)c1cn(C2CC2)c2cc(N3CCNCC3)c(F)cc2c1=O"
A. inactive

---

test system: CP237; assay: qHTS profiling for inhibitors of Plasmodium falciparum proliferation (AID 504749); also: nearly all actives have a fitted effect of over 60% in size; conditions: P. falciparum in erythrocytes, SYBR Green DNA, 72 h; series mostly up to 28.7 µM
Inconclusive results are not listed. The source made the active and inactive calls. Calls follow the shape of the dose curve; as a rule, active = well fitted inhibition curve with a large enough effect; inconclusive = small, poorly fitted or top-dose-only effect; inactive = flat fitted curve, though single readings scatter.
The categories you may choose from are 1 for active, -1 for inactive

CCc1c2c(nc3ccc(OC(=O)N4CCC(N5CCCCC5)CC4)cc13)-c1cc3c(c(=O)n1C2)COC(=O)[C@]3(O)CC :: -1
COc1nc(N)nc2c1ncn2[C@@H]1O[C@H](CO)[C@@H](O)[C@@H]1O :: -1
C1CCC(C(CC2CCCCN2)C2CCCCC2)CC1 (stereo unspecified) :: 1
Cc1nnc(NS(=O)(=O)c2ccc(N)cc2)s1 :: -1

Q. Status in this test for "COc1cc([C@@H]2c3cc4c(cc3[C@H](O)[C@H]3COC(=O)[C@H]23)OCO4)cc(OC)c1OC" ?
A. 1

Q. What outcome does the record of this test show for "C[C@]12C=CC(=O)C=C1CC[C@@H]1[C@@H]2C(=O)C[C@@]2(C)[C@H]1CC[C@]2(O)C(=O)CO" ?
A. -1

---

assay: qHTS of pediatric cancer cell lines to identify multiple opportunities for drug repurposing: Primary screen for RD cells (AID 1347104); conditions: RD rhabdomyosarcoma viability, CellTiter-Glo luminescence, 48 h; series mostly up to 46 µM; also: nearly all actives have a fitted effect of over 55% in size
Results filed as inconclusive are left out. Calls of active or inactive are those of the source. Calls follow the shape of the dose curve; as a rule, active = well fitted cell-killing curve with a large enough effect; inconclusive = small, poorly fitted or top-dose-only effect; inactive = flat fitted curve, though single readings scatter.
// classify into active, inactive

Q. Hi team, can someone confirm the assay call for CCOc1cc(N)c(Cl)cc1C(=O)NCC1CN(Cc2ccc(F)cc2)CCO1 (stereo not drawn) ?
A. inactive

Q. Please state the recorded outcome for this molecule: "CS(=O)(=O)c1ccc([C@@H](O)[C@@H](CO)NC(=O)C(Cl)Cl)cc1"
A. inactive

Q. Fill in: this test's call for "CC(C)(C)C(=O)OCOP(=O)(COCCn1cnc2c(N)ncnc21)OCOC(=O)C(C)(C)C" is ___
A. active

Q. I'd appreciate the recorded outcome for "N[C@@H](Cc1ccc(O)c(O)c1)C(=O)O" from this test.
A. inactive
